Source: ChEMBL document CHEMBL4689842

- Test system: U2OS
- measurement.protocol: Multiplex assay against U2OS
- Format: toxicity, cell-based
- applied.conditions: human, 24 h, 10 µM, compound concentration 10 uM, replicate 1
Exam item: assign label 1 to entries whose Population Apoptotic (%) is below 90% and label 0 to entries at or above 90%. Note that a value of exactly 90% receives label 0.

{"structure.as.smiles": "CN1CCN(c2ccc(OC(F)(F)F)c(Nc3ncc4c(n3)-c3c(c(C(N)=O)nn3CCO)CC4)c2)CC1", "answer.label": "label 1"}
{"structure.as.smiles": "CNc1nc(NCc2ccc(NS(C)(=O)=O)cc2Cl)cc(-c2ccccn2)n1", "answer.label": "label 1"}
{"structure.as.smiles": "Cc1c(-c2ccc(O)cc2)n(Cc2ccc(OCCN3CCCCCC3)cc2)c2ccc(O)cc12", "answer.label": "label 1"}
{"structure.as.smiles": "Cc1csc2c(N[C@@H](C)CN3CCN(S(=O)(=O)c4ccc(Cl)c(Cl)c4)CC3)ncnc12", "answer.label": "label 0"}
{"structure.as.smiles": "Cc1cc(C)cc(-c2cnc3cc(Cl)c(-c4cccc(O)c4)cc3c2OCCCN)c1", "answer.label": "label 1"}

* * *

- Test system: Fibroblast
- measurement.protocol: Multiplex assay against human fibroblast
- Assay type: toxicity, cell-based
- applied.conditions: 12 h, 10 µM, compound concentration 10 uM, replicate 2
quantity.name: Population Hoechst High Intensity Objects (%)

{"compound": "O=C1NCN(c2ccccc2)C12CCN(CCCOc1ccc(F)cc1)CC2 [SPIRAMIDE]", "study.target": "Fibroblast", "recorded.measurement": 8}
{"compound": "CC[C@H](C)C(=O)O[C@H]1C[C@@H](C)C=C2C=C[C@H](C)[C@H](CC[C@@H]3C[C@@H](O)CC(=O)O3)[C@H]21 [LOVASTATIN]", "study.target": "Fibroblast", "recorded.measurement": 8}
{"compound": "C=CC(=O)Nc1ccc2ncnc(Nc3ccc(OCc4cccc(F)c4)c(Cl)c3)c2c1.Cc1ccc(S(=O)(=O)O)cc1", "study.target": "Fibroblast", "recorded.measurement": 10}
{"compound": "c1cn2cc(-c3ccc4cn[nH]c4c3)nc(Nc3ccc(N4CCOCC4)cc3)c2n1 [ENTOSPLETINIB]", "study.target": "Fibroblast", "recorded.measurement": 25}
{"compound": "CN1CCN(c2ccc(OC(F)(F)F)c(Nc3ncc4c(n3)-c3c(c(C(N)=O)nn3CCO)CC4)c2)CC1 [ONVANSERTIB]", "study.target": "Fibroblast", "recorded.measurement": 19}
{"compound": "COc1ncc(-c2ccc3nccc(-c4ccnnc4)c3c2)cc1NS(=O)(=O)c1ccc(F)cc1F [OMIPALISIB]", "study.target": "Fibroblast", "recorded.measurement": 7}
{"compound": "Cc1nc(-c2cn3c(n2)-c2ccc(-c4cnn(C(C)(C)C(N)=O)c4)cc2OCC3)n(C(C)C)n1 [TASELISIB]", "study.target": "Fibroblast", "recorded.measurement": 30}
{"compound": "Cc1nc(-c2ccc(-c3ccc(C(=O)N4CCc5cc6c(cc54)C4(CCN(C)CC4)CO6)cc3)c(C)c2)no1 [SB-224289]", "study.target": "Fibroblast", "recorded.measurement": 11}

* * *

Item-by-item account of Population Normal (%)
- Tested on: Fibroblast
- measurement.protocol: Multiplex assay against human fibroblast
- Type: toxicity, cell-based
- applied.conditions: 12 h, 1 µM, compound concentration 1 uM, replicate 1

{"compound": "C=CC(=O)Nc1cccc(C(=O)Nc2ccc(Nc3cc(-c4[nH]c(SC)nc4C)ccn3)cc2)c1", "Population Normal (%)": 88}
{"compound": "CN(C)C(=O)N[C@H]1CC[C@H](CCN2CCN(c3cccc(Cl)c3Cl)CC2)CC1.Cl [CARIPRAZINE HYDROCHLORIDE]", "Population Normal (%)": 93}
{"compound": "C[C@@H](NCCCc1cccc(C(F)(F)F)c1)c1cccc2ccccc12.Cl [CINACALCET HYDROCHLORIDE]", "Population Normal (%)": 84}
